assayTarget: recombinant autotaxin (Homo sapiens, UniProt Q13822)
Construct: made in house; host or cells: Hi5 insect cells (baculovirus)
assay: Autotaxin test (enzyme test), Amplex Red fluorescence with LPC substrate
Format: biochemical
conditionsUsed: 10 μM compound; autotaxin inhibition (enzyme test); read-out: % Control at 10 μM
Procedure: Autotaxin Inhibition (Enzyme Test) Autotaxin Test (Enzyme Test) The autotaxin activity is measured indirectly using Amplex Red reagent. Amplex Red is measured here as fluorogenic indicator for the H2O2 formed. […] The fluorescence is measured in a reaction-dependent kinetic mode in order that fluorescent signals from possible other fluorescent substances which are not involved in the reaction can be corrected out. […]
The following compounds are shown together with reported remaining activity at 10 µM values.
Quick reminder: number only, in %, skip the unit.

Examples with their reported remaining activity at 10 µM follow.
The compound identified as CC(C)(C)CC(=O)N1CCN2C(=O)c3cc(-c4ccc(Cl)cc4)ccc3N(CCO)C(=O)C2C1 (stereo not drawn) registered its remaining activity at 10 µM at -20

According to the records, this compound Cc1nc(C)c(C(=O)N2CCN3C(=O)c4cc(-c5ccc(Cl)cc5)ccc4NC(=O)C3C2)s1 (stereo not drawn) displays remaining activity at 10 µM of 78

Reported remaining activity at 10 µM ( Nc1nc(C(=O)N2CCN3C(=O)c4cc(-c5ccc(Cl)cc5)ccc4NC(=O)C3C2)cs1 (stereo not drawn) ) = 80

Others:
The reported remaining activity at 10 µM of the compound O=C1Nc2ccc(-c3ccc(Cl)cc3)cc2C(=O)N2CCN(C(=O)CC3CCCCC3)CC12 (stereo not drawn) was 67

Per the records, this compound ( "CC(C)(C)[C@H](N)C(=O)N1CCN2C(=O)c3cc(-c4ccc(Cl)cc4F)ccc3NC(=O)[C@H]2C1" ) has remaining activity at 10 µM equal to 48.5

Lab note: CC(C)(C)CC(=O)N1CCN2C(=O)c3cc(-c4ccc(F)cc4)ccc3NC(=O)C2C1 (stereo not drawn) gave remaining activity at 10 µM of -1

Reported remaining activity at 10 µM ( O=C1Nc2ccc(-c3ccc(Cl)cc3)cc2C(=O)N2CCN(C(=O)C(O)c3cccc(Cl)c3)CC12 (stereo not drawn) ) = 68

Recorded result, CO[C@H](C(=O)N1CCN2C(=O)c3cc(-c4ccc(Cl)cc4)ccc3NC(=O)C2C1)C(C)(C)C (stereo partly drawn) , remaining activity at 10 µM: -21

Entry under test: "O=C1Nc2ccc(-c3ccco3)cc2C(=O)N2CCN(C(=O)CO)C[C@H]12" . Its remaining activity at 10 µM was 73

Reported remaining activity at 10 µM ( "O=C1Nc2ccc(-c3ccc(Cl)cc3)cc2C(=O)N2CCN(C(=O)C3CCCCC3)C[C@H]12" ) = 26

remaining activity at 10 µM for CN1CCC(C)(C(=O)N2CCN3C(=O)c4cc(-c5ccc(Cl)cc5)ccc4NC(=O)C3C2)CC1 (stereo not drawn) is 51

Memo: CC(C)(C)[C@@H](NC=O)C(=O)N1CCN2C(=O)c3cc(-c4ccc(Cl)cc4)ccc3NC(=O)C2C1 (stereo partly drawn) , reported remaining activity at 10 µM: 71

* * *

assayTarget: recombinant autotaxin (Homo sapiens, UniProt Q13822)
Construct: made in house; host or cells: Hi5 insect cells (baculovirus)
assay: Autotaxin test (enzyme test), Amplex Red fluorescence with LPC substrate
Assay type: biochemical
conditionsUsed: 10 μM compound; autotaxin inhibition (enzyme test); read-out: % Control at 10 μM
propertyMeasured: remaining activity at 10 µM

Bench note, recombinant autotaxin (Homo sapiens, UniProt Q13822): CC(C)(C)CC(=O)N1CCN2Cc3cc(-c4ccccc4F)ccc3NCC2C1 (stereo not shown) , remaining activity at 10 µM reads 53%

Readout remaining activity at 10 µM for "O=C([C@@H]1CCCN1C1CCNCC1)N1CCN2C(=O)c3cc(-c4ccc(Cl)cc4F)ccc3N(CCC3CCNCC3)C(=O)[C@@H]2C1" , test system recombinant autotaxin (Homo sapiens, UniProt Q13822), was 12%

The recorded remaining activity at 10 µM with recombinant autotaxin (Homo sapiens, UniProt Q13822) for O=C1Nc2ccc(-c3ccc(Cl)cc3F)cc2C(=O)N2CCN(C(=O)CC3CC3)CC12 (stereo not shown) was 4%

Next item in the queue.
The observed remaining activity at 10 µM for "CC(C)(C)CC(=O)N1CCN2C(=O)c3cc(-c4ccc(Cl)cc4F)ccc3NC(=O)[C@@H]2C1" when tested with recombinant autotaxin (Homo sapiens, UniProt Q13822) stands at 25%

* * *

assayTarget: recombinant autotaxin (Homo sapiens, UniProt Q13822)
Construct: made in house; host or cells: Hi5 insect cells (baculovirus)
assay: Autotaxin test (enzyme test), Amplex Red fluorescence with LPC substrate
Format: biochemical
conditionsUsed: 10 μM compound; autotaxin inhibition (enzyme test); read-out: % Control at 10 μM
propertyMeasured: remaining activity at 10 µM (%)
# number only, unit % dropped from output

Summary for this compound, CC1(C)SCN[C@@H]1C(=O)N1CCN2C(=O)c3cc(-c4ccc(Cl)cc4F)ccc3NC(=O)C2C1 (stereo partly drawn) : remaining activity at 10 µM is -18

Sample CC(C)(C)CC(=O)N1CCN2C(=O)c3cc(-c4ccc(Cl)c(F)c4)ccc3NC(=O)C2C1 (stereo not drawn) ; remaining activity at 10 µM observed: -18

The compound "O=C1Nc2ccc(-c3ccccc3)cc2C(=O)N2CCN(C(=O)C3CCCC3)C[C@@H]12" showed remaining activity at 10 µM equal to 85

Recorded result, O=C1Nc2ccc(-c3ccc(Cl)cc3F)cc2C(=O)N2CCN(C(=O)[C@H]3NCC[C@@H]3O)CC12 (stereo partly drawn) , remaining activity at 10 µM: 58

Reported remaining activity at 10 µM of O=C1Nc2ccc(-c3ccc(Cl)cc3)cc2C(=O)N2CCN(C(=O)[C@H](O)c3ccccc3)CC12 (stereo partly drawn) : 31

The compound listed as O=C1Nc2ccc(-c3ccc(Cl)cc3F)cc2C(=O)N2CCN(C(=O)Cc3ccccn3)CC12 (stereo not drawn) has a reported remaining activity at 10 µM of 23

* * *

assayTarget: recombinant autotaxin (Homo sapiens, UniProt Q13822)
Construct: made in house; host or cells: Hi5 insect cells (baculovirus)
assay: Autotaxin test (enzyme test), Amplex Red fluorescence with LPC substrate
Type: biochemical
conditionsUsed: 10 μM compound; autotaxin inhibition (enzyme test); read-out: % Control at 10 μM
propertyMeasured: remaining activity at 10 µM (%)
State just the number; it will be interpreted in %.

Entry CN(C)CCN1C(=O)[C@H]2CN(C(=O)CC(C)(C)C)CCN2C(=O)c2cc(-c3ccc(Cl)cc3F)ccc21 [Compound A151] , remaining activity at 10 µM reported as 16

// sample CC(C)(C)CC(=O)N1CCN2C(=O)c3cc(-c4ccc(Cl)cc4)cnc3NC(=O)C2C1 (stereo not shown) [Compound A139] , its remaining activity at 10 µM was 45

Lookup result for NC(=O)C(=O)N1CCN2C(=O)c3cc(-c4ccco4)ccc3NC(=O)[C@H]2C1 [Compound A4] ; measured remaining activity at 10 µM: 75

CC(C)[C@H](N)C(=O)N1CCN2C(=O)c3cc(-c4ccc(Cl)cc4F)ccc3NC(=O)[C@@H]2C1 [Compound A62] has a reported remaining activity at 10 µM of 27

Reported remaining activity at 10 µM of CC(C)(C)CC(=O)N1CCN2C(=O)c3cc(-c4cc(F)c(Cl)c(F)c4)ccc3NC(=O)C2C1 (stereo not shown) [Compound A79] : -14

Continuing:
The molecule listed as O=C1Nc2ccc(-c3ccccc3F)cc2C(=O)N2CCN(C(=O)C3CCCC3)C[C@@H]12 [Compound B10] has a reported remaining activity at 10 µM of 76

Looking up CC(C)(C(=O)N1CCN2C(=O)c3cc(-c4ccc(Cl)cc4F)ccc3NC(=O)C2C1)c1ccccc1 (stereo not shown) [Compound A58] , I see its remaining activity at 10 µM listed as -27

* * *

assayTarget: recombinant autotaxin (Homo sapiens, UniProt Q13822)
Construct: made in house; host or cells: Hi5 insect cells (baculovirus)
assay: Autotaxin test (enzyme test), Amplex Red fluorescence with LPC substrate
Format: biochemical
conditionsUsed: 10 μM compound; autotaxin inhibition (enzyme test); read-out: % Control at 10 μM
propertyMeasured: remaining activity at 10 µM (%)
Provide the reading as a plain figure in %.

The cases that follow already have their remaining activity at 10 µM on record.
The reported value for "O=C1Nc2ccc(-c3ccc(Cl)c(F)c3)cc2C(=O)N2CCN(C(=O)[C@@H]3CCCN3C3CCNCC3)C[C@H]12" in terms of remaining activity at 10 µM is 7

Sample "O=C1Nc2ccc(-c3ccc4c(c3)OCO4)cc2C(=O)N2CCN(C(=O)[C@@H]3CSCN3)C[C@H]12" ; remaining activity at 10 µM observed: 74

Field remaining activity at 10 µM (entry CC(C)[C@H](O)C(=O)N1CCN2C(=O)c3cc(-c4ccc(Cl)cc4)ccc3NC(=O)C2C1 (stereo partly shown) ) reads -2

Entry "O=C1Nc2ccc(-c3ccc(Cl)cc3)cc2C(=O)N2CCN(C(=O)COc3ccccc3)C[C@H]12" , remaining activity at 10 µM reported as 57

get_value(item= CN(C)CCN1C(=O)C2CN(C(=O)CC(C)(C)C)CCN2C(=O)c2cc(-c3ccc(Cl)cc3)ccc21 (stereo not shown) , readout=remaining activity at 10 µM) returns -19

New cases:
What the record says about Cc1nc(C(=O)N2CCN3C(=O)c4cc(-c5ccc(Cl)cc5)ccc4NC(=O)C3C2)c(N)s1 (stereo not shown) : remaining activity at 10 µM is 66

Measured remaining activity at 10 µM of "O=C1Nc2ccc(-c3ccc(Cl)cc3)cc2C(=O)N2CCN(C(=O)[C@@H]3CCCN3C3CCNCC3)C[C@@H]12" : 33
